The measured values listed here are drawn from the RNAGym collection of RNA variant scans (doi:10.7554/elife.80360).

B1: CPEB3 Ribozyme (parent)
chain: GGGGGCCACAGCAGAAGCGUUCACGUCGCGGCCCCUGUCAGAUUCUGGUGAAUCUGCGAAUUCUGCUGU

Variants of: B1
EXPERIMENTAL PROTOCOL: self-cleavage, relative activity (ratio to wild type); higher = more cleavage; co-transcriptional
Classify as follows. Reported self-cleavage greater than or equal to 0.2: y. Reported self-cleavage below: n.

Here are 2 variants together with their reported answers.
MUTANT ID	ASSIGNED LABEL
G4A C66G	y
C29G G68U	y

Kindly determine if self-cleavage recorded for C29G U36C is above or exactly 0.2.
y

Kindly determine if self-cleavage recorded for C7G U62A is above or exactly 0.2.
n

Kindly determine if self-cleavage recorded for A10C A59G is above or exactly 0.2.
y

Kindly determine if self-cleavage recorded for G4A G68A is above or exactly 0.2.
y

Kindly determine if self-cleavage recorded for G3U G47A is above or exactly 0.2.
n
